assayMetric: melting point

1) CCC(C(=O)O[C@@H]1C[C@H]2C(=O)N[C@]3(C(=O)NS(=O)(=O)C4CC4)C[C@H]3/C=C\COCCC[C@H](NC(=O)OC(C)(C)C)C(=O)N2C1)c1ccccc1 (mixture of isomers) [Compound 5]: 113 to 115 °C
2) CC(C)(C)OC(=O)N[C@H]1CCCCC/C=C\[C@@H]2C[C@@]2(C(=O)NS(=O)(=O)C2CC2)NC(=O)[C@@H]2C[C@@H](OC(=O)c3ccc(C#N)cc3)CN2C1=O [Compound 26]: 164 to 166 °C
3) COc1ccccc1C(=O)O[C@@H]1C[C@H]2C(=O)N[C@]3(C(=O)NS(=O)(=O)C4CC4)C[C@H]3/C=C\COCCC[C@H](NC(=O)OC(C)(C)C)C(=O)N2C1 [Compound 7]: 144 to 146 °C
4) CC(C)(C)OC(=O)N[C@H]1COCCC/C=C\[C@@H]2C[C@@]2(C(=O)NS(=O)(=O)C2CC2)NC(=O)[C@@H]2C[C@@H](OC(=O)c3cccc(Oc4ccccc4)c3)CN2C1=O [Compound 13]: 123 to 125 °C
5) CC(C)(C)OC(=O)N[C@H]1CCCCC/C=C\[C@@H]2C[C@@]2(C(=O)NS(=O)(=O)C2CC2)NC(=O)[C@@H]2C[C@@H](OC(=O)c3ccc(-c4ccccc4)cc3)CN2C1=O [Compound 19]: 162 to 164 °C

====

target: HCV NS3/4A protease complex, J4L6S strain (Hepatitis C virus genotype 1b, UniProt O92972, C1454S/C1711G); construct: DNA encoding the recombinant HCV NS3/4A protease complex (amino acids 1027 to 1711) for these strains; inferred from the pET21b vector and Ni-NTA purification; test: FRET peptide assay to monitor HCV NS3/4A proteolytic activity (J4L6S strain)
Sequence (O92972 1027-1711 C1454S/C1711G, one chain of several): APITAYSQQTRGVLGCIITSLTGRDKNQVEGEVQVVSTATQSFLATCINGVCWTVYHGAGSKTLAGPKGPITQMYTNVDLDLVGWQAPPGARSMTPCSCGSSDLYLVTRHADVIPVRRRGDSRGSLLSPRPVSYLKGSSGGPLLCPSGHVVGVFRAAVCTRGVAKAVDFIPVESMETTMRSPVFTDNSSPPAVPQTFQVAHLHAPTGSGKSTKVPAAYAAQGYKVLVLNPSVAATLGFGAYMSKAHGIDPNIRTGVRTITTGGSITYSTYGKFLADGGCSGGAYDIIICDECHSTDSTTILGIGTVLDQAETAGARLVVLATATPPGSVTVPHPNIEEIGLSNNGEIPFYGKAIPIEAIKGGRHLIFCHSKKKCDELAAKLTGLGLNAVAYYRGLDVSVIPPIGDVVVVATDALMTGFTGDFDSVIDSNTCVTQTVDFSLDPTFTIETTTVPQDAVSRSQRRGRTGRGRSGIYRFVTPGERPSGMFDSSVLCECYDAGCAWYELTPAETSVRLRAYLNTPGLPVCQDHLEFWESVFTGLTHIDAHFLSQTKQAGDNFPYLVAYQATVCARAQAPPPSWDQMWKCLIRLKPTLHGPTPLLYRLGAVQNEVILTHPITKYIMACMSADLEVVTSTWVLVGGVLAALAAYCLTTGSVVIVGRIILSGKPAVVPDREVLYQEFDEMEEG
pIC50: −log10 of the molar value.
assayMetric: pIC50

1) CC(C)(C)OC(=O)N[C@H]1CCCCC/C=C\[C@@H]2C[C@@]2(C(=O)NS(=O)(=O)C2CC2)NC(=O)[C@@H]2C[C@@H](OC(=O)c3ccc(C#N)cc3)CN2C1=O: 9.64

====

assayMetric: melting point

1) CC(C)(C)OC(=O)N[C@H]1CCCCC/C=C\[C@@H]2C[C@@]2(C(=O)NS(=O)(=O)C2CC2)NC(=O)[C@@H]2C[C@@H](OC(=O)c3cccc(C#N)c3)CN2C1=O: 151 to 153 °C
2) COC(=O)c1ccccc1NC(=O)O[C@@H]1C[C@H]2C(=O)N[C@]3(C(=O)NS(=O)(=O)C4CC4)C[C@H]3/C=C\COCCC[C@H](NC(=O)OC(C)(C)C)C(=O)N2C1: 147 to 149 °C
3) COc1ccc(C(=O)O[C@@H]2C[C@H]3C(=O)N[C@]4(C(=O)NS(=O)(=O)C5CC5)C[C@H]4/C=C\COCCC[C@H](NC(=O)OC(C)(C)C)C(=O)N3C2)c(OC)c1: 122 to 124 °C
4) Cc1cc(C(=O)O[C@@H]2C[C@H]3C(=O)N[C@]4(C(=O)NS(=O)(=O)C5CC5)C[C@H]4/C=C\CCCCC[C@H](NC(=O)OC(C)(C)C)C(=O)N3C2)no1: 157 to 159 °C
5) COc1cccc(C(=O)O[C@@H]2C[C@H]3C(=O)N[C@]4(C(=O)NS(=O)(=O)C5CC5)C[C@H]4/C=C\COCCC[C@H](NC(=O)OC(C)(C)C)C(=O)N3C2)c1: 149 to 151 °C
6) CC(C)(C)OC(=O)N[C@H]1CCCCC/C=C\[C@@H]2C[C@@]2(C(=O)NS(=O)(=O)C2CC2)NC(=O)[C@@H]2C[C@@H](OC(=O)c3ccccn3)CN2C1=O: 164 to 166 °C
7) COC(=O)c1ccc(C(=O)O[C@@H]2C[C@H]3C(=O)N[C@]4(C(=O)NS(=O)(=O)C5CC5)C[C@H]4/C=C\CCCCC[C@H](NC(=O)OC(C)(C)C)C(=O)N3C2)cc1: 154 to 156 °C
8) CC(C)(C)OC(=O)N[C@H]1COCCC/C=C\[C@@H]2C[C@@]2(C(=O)NS(=O)(=O)C2CC2)NC(=O)[C@@H]2C[C@@H](OC(=O)c3ccc(Oc4ccccc4)cc3)CN2C1=O: 207 to 209 °C
9) CC(C)(C)OC(=O)N[C@H]1CCCCC/C=C\[C@@H]2C[C@@]2(C(=O)NS(=O)(=O)C2CC2)NC(=O)[C@@H]2C[C@@H](OC(=O)c3cccc(Cl)c3)CN2C1=O: 154 to 156 °C
10) CC(C)(C)OC(=O)N[C@H]1COCCC/C=C\[C@@H]2C[C@@]2(C(=O)NS(=O)(=O)C2CC2)NC(=O)[C@@H]2C[C@@H](OC(=O)Nc3ccc(Oc4ccccc4)cc3)CN2C1=O: 163 to 165 °C

Data origin: patent US7772183B2
